- STUDY_SYSTEM: T1, EGFR-Fc (R&D Systems), ectodomain of human EGFR as a Fc fusion (human, UniProt P00533 25-645)
- T1 construct: extracellular domain; Bought from R&D Systems; also called EGFR-FL-Fc; full length EGFR Fc fusion protein; not shown: Fc of the purchased fusion
- TEST_METHOD_NOTES: direct binding ELISA, single point; clone captured by anti-His, 50 nM receptor-Fc, anti-human Fc HRP
METRIC_NAME: A450 (A450)

INSERT INTO results (binder, numeric_readout) VALUES
  ('867C04 (designed binder, 10Fn3-based clone expressed in E. coli as His6 tagged protein; not shown: His6 tag) VSDVPRDLEVVAATPTSLLISWESKYVNYRYYRITYGETGGNSPVQEFTVPHLMTATISGLKPGVDYTITVYAVTVGGDHMYSSLPISINYRT', 1.95),
  ('679F09 (designed binder, 10Fn3-based clone expressed in E. coli as His6 tagged protein; also called clone 679F09; not shown: His6 tag) VSDVPRDLEVVAATPTSLLISWQVPRPMYQRYYRITYGETGGNSPVQEFTVPGGVRTATISGLKPGVDYTITVYAVTDYMHSEYRQYPISINYRT', 2.42),
  ('867B10 (designed binder, 10Fn3-based clone expressed in E. coli as His6 tagged protein; not shown: His6 tag) VSDVPRDLEVVAATPTSLLISWKSVYVDYRYYRITYGETGGNSPVQEFTVPHSNLTATISGLKPGVDYTITVYAVTVYESYVANDSPISINYRT', 2.96),
  ('679B10 (designed binder, 10Fn3-based clone expressed in E. coli as His6 tagged protein; not shown: His6 tag) VSDVPRDLEVVAATPTSLLISWRLTAPLGRYYRITYGETGGNSPVQEFTVPDIPFTATISGLKPGVDYTITVYAVTLSDSAHGGLRDVPISINYRT', 1.38),
  ('679F03 (designed binder, 10Fn3-based clone expressed in E. coli as His6 tagged protein; not shown: His6 tag) VSDVPRDLEVVAATPTSLLISWYHYYSGSQRYYRITYGETGGNSPVQEFTVPHEVYTATISGLKPGVDYTITVYAVTDYAYKEYEEYPISINYRT', 2.37),
  ('867H08 (designed binder, 10Fn3-based clone expressed in E. coli as His6 tagged protein; not shown: His6 tag) VSDVPRDLEVVAATPTSLLISWLRVPAYDRYYRITYGETGGNSPVQEFTVPDVPWTATISGLKPGVDYTITVYAVTLDESDMRVGVPISINYRT', 1.9),
  ('867B08 (designed binder, 10Fn3-based clone expressed in E. coli as His6 tagged protein; not shown: His6 tag) VSDVPRDLEVVAATPTSLLISWSGSYKSYRYYRITYGETGGNSPVQEFTVPHYDHATATISGLKPGVDYTITVYAVTVDYTAVQVSYPISINYRT', 2.61),
  ('679A10 (designed binder, 10Fn3-based clone expressed in E. coli as His6 tagged protein; not shown: His6 tag) VSDVPRDLEVVAATPTSLLISWDRMLSFLRYYRITYGETGGNSPVQEFTVPLIYPTATISGLKPGVDYTITVYAVTVQLLDQCLRIHGPISINYRT', 0.787),
  ('867A03 (designed binder, 10Fn3-based clone expressed in E. coli as His6 tagged protein; not shown: His6 tag) VSDVPRDLEVVAATPTSLLISWTYRHYPERYYRITYGETGGNSPVQEFTVPDPDSTATISGLKPGVDYTITVYAVTYNHSSTPISINYRT', 2.3),
  ('679B09 (designed binder, 10Fn3-based clone expressed in E. coli as His6 tagged protein; not shown: His6 tag) VSDVPRDLEVVAATPTSLLISWMRWYAPRRYYRITYGETGGNSPVQEFTVPFWQGTATISGLKPGVDYTITVYAVTRGQSGLGMPISINYRT', 0.455),
  ('679B01 (designed binder, 10Fn3-based clone expressed in E. coli as His6 tagged protein; not shown: His6 tag) VSDVPRDLEVVAATPTSLLISWLLLGAPCRYYRITYGETGGNSPVQEFTVPWMGLTATISGLKPGVDYTITVYAVTSERAPCVKVWRCPISINYRT', 0.213),
  ('679C10 (designed binder, 10Fn3-based clone expressed in E. coli as His6 tagged protein; not shown: His6 tag) VSDVPRDLEVVAATPTSLLISWSRYAPGGRYYRITYGETGGNSPVQEFTVPDVPWTATISGLKPGVDYTITVYAVTLSNYEYLARNPISINYRT', 0.467);
